Tested on: HCT-116
Test: Cytotoxicity against human HCT116 cells after 72 hrs by MTS/PMS assay
Format: functional, cell-based
Settings: HCT-116, 72 h
pIC50: −log10 of the molar value.
Everything with pIC50 lower than 6 is no (0); everything else, including exactly 6, is yes (1).

- Compound: "C[C@@]12OC(=O)[C@]1([C@@H](O)C1CCCC1)NC(=O)[C@@H]2CCCl"
  Discrete Label: "yes (1)"
- Compound: "C[C@@]12OC(=O)[C@]1([C@@H](O)C1CCC1)NC(=O)[C@@H]2CCCl [SALINOSPORAMIDE X3]"
  Discrete Label: "yes (1)"
- Compound: "C[C@@]12OC(=O)[C@]1([C@@H](O)C1CCCCC1)NC(=O)[C@@H]2CCCl"
  Discrete Label: "yes (1)"
- Compound: "C[C@@]12OC(=O)[C@]1([C@@H](O)[C@@H]1C=CCC1)NC(=O)[C@@H]2CCCl [SALINOSPORAMIDE X7]"
  Discrete Label: "yes (1)"
- Compound: "C[C@@]12OC(=O)[C@]1([C@@H](O)c1ccccc1)NC(=O)[C@@H]2CCCl [SALINOSPORAMIDE X4]"
  Discrete Label: "no (0)"
- Compound: "C[C@@]12OC(=O)[C@]1([C@@H](O)[C@@H]1C=CCCC1)NC(=O)[C@@H]2CCCl"
  Discrete Label: "yes (1)"

----------
Test system: HCT-116
Assay: Cytotoxicity against human HCT116 cells after 72 hrs by MTS/PMS assay
Assay type: functional, cell-based
Settings: HCT-116, 72 h
Measure: IC50 (nM)

- Compound: "CC(C)[C@H](O)[C@@]12NC(=O)[C@H](CCCl)[C@]1(C)OC2=O [ANTIPROTEALIDE]"
  Units: "nM"
  Value Measured: 777
- Compound: "CCC[C@H](O)[C@@]12NC(=O)[C@H](CCCl)[C@]1(C)OC2=O [SALINOSPORAMIDE X5]"
  Units: "nM"
  Value Measured: 1090
- Compound: "CCCC[C@H](O)[C@@]12NC(=O)[C@H](CCCl)[C@]1(C)OC2=O [SALINOSPORAMIDE X6]"
  Units: "nM"
  Value Measured: 1110

Origin of measurements: ChEMBL document CHEMBL1154272
